src = patent US11945812B2

GI50: recorded values
- SYSTEM: Ba/F3 cells bearing a KRAS G12C mutation (Homo sapiens, UniProt P01116, G12C, cells depend on it)
- Sequence (P01116 whole entry G12C): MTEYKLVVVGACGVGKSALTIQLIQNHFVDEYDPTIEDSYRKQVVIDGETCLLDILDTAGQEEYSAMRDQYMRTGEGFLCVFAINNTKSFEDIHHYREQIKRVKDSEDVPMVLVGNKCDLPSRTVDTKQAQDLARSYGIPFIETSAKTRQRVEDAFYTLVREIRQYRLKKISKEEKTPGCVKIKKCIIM
- EXPERIMENTAL_PROTOCOL: Ba/F3 cell model proliferation assay (AlamarBlue, 72 h)
- Type: cell-based
- EXPERIMENTAL_SETUP: Ba/F3 KRAS G12C cells, 72 h, 10% FCS, uncorrected; read-out: IC50 Ba/F3 KRASG12C
VALUE_TYPE: GI50 (nM)

> print(dat)
                                   molecule  value.type   val
1  C=C(F)C(=O)N1[C@@H](C)CN(c2cc(O[C@@H](C)[C@@H]3CCCN3C)nc(-c3cc([C@@]4(C)CCCc5sc(N)c(C#N)c54)on3)n2)C[C@@H]1C        GI50  12.6
2  C=CC(=O)N1CCN(c2cc(O[C@@H](C)[C@@H]3CCCN3C)nc(-c3cc([C@@]4(C)CCCc5sc(N)c(C#N)c54)no3)n2)[C@H](C)C1        GI50   2.3
3  COC/C=C/C(=O)N1CCN(c2cc(O[C@@H](C)[C@@H]3CCCN3C)nc(-c3cc([C@@]4(C)CCCc5sc(N)c(C#N)c54)sn3)n2)CC12CC2        GI50    44
